# Test system: SRPK2;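 further: kd values determined as follow-up on hits from a single-replicate KINOMEscan panel screen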
quantity kind: Kd

Kd value, target or system SRPK2, for COc1ccc(CNC(=O)NC2CCN(c3ccnc(Nc4ccc(F)cc4)n3)C2)cc1 (stereo not shown) [GSK1379706] : > 10 µM

###

# Test system: SRPK1;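 further: KINOMEscan kinase panel screen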
# cond: concentration: 1 μM, replicates: in singlicate; n = 1
Measured %Inh of individual entries
Give the quantity in %, number only.

Reported %Inh ( Cl.c1ccc(Cn2cnc3cc(Nc4ncnc5ccccc45)ccc32)cc1 [GW272142] ) = 19

Per the records, this compound ( FC(F)(F)c1ccc(-c2ncn(CCCN3CCOCC3)c2-c2ccncc2)cc1 [SB-217780] ) has %Inh equal to 0

%Inh reported for this compound CN(C)c1cc(-c2ccc3c(N)n[nH]c3c2)nc(N)n1 [GSK2219329] : 0

# %Inh of O=C1NC(=O)C(c2ccccc2)=C1Nc1cccc(O)c1 [SB-390534] = 20

Please fill in: %Inh reported for Cc1nnc(-c2ccc3ncn(-c4ccc(S(C)=O)cc4)c3c2)o1 (stereo not shown) = 0

Lab book: %Inh of CN1C(=O)C(Nc2ccccc2)=C(c2ccccc2)C1=O [SB-300079] noted as 0

New cases:
// recorded %Inh for O=C(Nc1n[nH]c2nc(-c3ccccc3)c(Cl)cc12)C1CC1 [SB-734909] : 0

Cc1cc(Nc2nc(-c3cccc(C)n3)nc3ccccc23)ccn1 [GW872411] yielded %Inh of 0

// recorded %Inh for COc1cc2nccc(Nc3cccc(Oc4ccccc4)c3)c2cc1OC.Cl [GW284543] : 65

Reported %Inh for `Cc1nc(N(C)[C@H]2CN(C(=O)CC#N)CC[C@H]2C)c2cc[nH]c2n1` was 26

Note to self: %Inh recorded for `Cc1ccc(Oc2ccc(Nc3ncnc4cc[nH]c34)cc2C)cn1` was 0

Reported %Inh for Cc1ccccc1COc1cc(-n2cnc3cc(Cl)ccc32)sc1C(N)=O [GW813349] was 10

The reported value for COc1cc2ncn(-c3cc(OCc4ccc(S(C)(=O)=O)cc4)c(C(N)=O)s3)c2cc1OC [GW869979] in terms of %Inh is 25
